Quick reference for IC50 among some molecules
target: α4β7 (Homo sapiens, UniProt P13612+P26010); construct: α4β7 expressing cells (RPMI-8866); endogenous in cells; host or cells: RPMI 8866; assay: Cell adhesion assay, RPMI8866 cells adhering to MAdCAM coated plates; type: cell-based; settings: RPMI8866 cells on recombinant human MAdCAM coated plates; read-out: CA Assay (Example 7) IC50
Sequence (P13612 34-1032): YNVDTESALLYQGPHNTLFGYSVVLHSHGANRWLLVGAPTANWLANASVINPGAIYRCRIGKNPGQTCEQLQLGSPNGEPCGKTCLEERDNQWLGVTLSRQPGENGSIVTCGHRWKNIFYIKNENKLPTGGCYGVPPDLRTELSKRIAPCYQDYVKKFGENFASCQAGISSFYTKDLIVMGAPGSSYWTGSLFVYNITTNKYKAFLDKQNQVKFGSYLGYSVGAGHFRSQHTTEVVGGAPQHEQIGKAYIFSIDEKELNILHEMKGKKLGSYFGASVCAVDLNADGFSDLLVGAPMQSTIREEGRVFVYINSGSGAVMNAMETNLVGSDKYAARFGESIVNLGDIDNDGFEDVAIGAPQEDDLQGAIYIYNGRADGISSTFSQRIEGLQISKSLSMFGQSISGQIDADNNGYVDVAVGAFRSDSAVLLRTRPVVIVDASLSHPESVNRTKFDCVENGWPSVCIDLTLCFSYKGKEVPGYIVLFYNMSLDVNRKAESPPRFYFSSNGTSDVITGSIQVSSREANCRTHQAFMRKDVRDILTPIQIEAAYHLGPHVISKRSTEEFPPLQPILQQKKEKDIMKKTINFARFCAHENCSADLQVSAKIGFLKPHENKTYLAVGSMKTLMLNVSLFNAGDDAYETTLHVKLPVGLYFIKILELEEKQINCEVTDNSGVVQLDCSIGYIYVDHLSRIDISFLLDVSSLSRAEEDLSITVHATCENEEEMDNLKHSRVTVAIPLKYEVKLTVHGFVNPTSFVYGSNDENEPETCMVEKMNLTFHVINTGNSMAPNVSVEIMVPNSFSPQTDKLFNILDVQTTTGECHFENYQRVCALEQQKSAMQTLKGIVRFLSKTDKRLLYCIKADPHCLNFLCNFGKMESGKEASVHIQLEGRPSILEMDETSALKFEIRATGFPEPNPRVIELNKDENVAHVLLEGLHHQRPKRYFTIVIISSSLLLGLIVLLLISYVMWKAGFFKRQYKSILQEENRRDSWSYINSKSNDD
Sequence (P26010 20-798): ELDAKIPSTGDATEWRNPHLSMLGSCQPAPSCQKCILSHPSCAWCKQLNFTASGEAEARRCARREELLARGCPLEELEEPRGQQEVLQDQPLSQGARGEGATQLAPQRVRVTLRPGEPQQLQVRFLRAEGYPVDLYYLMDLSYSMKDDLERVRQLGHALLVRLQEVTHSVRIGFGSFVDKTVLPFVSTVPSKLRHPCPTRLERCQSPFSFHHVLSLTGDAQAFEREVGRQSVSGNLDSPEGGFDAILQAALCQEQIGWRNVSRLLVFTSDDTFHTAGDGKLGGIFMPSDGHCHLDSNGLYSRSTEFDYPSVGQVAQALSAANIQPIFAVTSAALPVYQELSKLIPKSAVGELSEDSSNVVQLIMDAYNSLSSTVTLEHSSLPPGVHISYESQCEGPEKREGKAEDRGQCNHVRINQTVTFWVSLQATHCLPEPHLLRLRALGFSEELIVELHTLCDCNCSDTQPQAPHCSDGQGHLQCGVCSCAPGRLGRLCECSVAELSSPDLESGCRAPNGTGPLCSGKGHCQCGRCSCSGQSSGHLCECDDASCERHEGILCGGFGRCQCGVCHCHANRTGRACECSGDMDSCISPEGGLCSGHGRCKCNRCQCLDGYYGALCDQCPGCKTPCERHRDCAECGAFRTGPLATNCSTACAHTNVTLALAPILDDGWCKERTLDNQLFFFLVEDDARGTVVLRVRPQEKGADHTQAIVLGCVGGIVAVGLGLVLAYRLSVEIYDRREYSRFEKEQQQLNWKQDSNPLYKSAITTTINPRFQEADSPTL

>  <MOLECULE>
Cc1cc(F)c(C)c(C)c1-c1cc(C(F)(F)F)c(F)c([C@H](CC(=O)O)NC(=O)[C@H](CC(C)C)n2cc(CCN3CCC3)c(C(F)(F)F)cc2=O)c1F [KT-P2]

>  <IC50>
< 5 nM

$$$$
>  <MOLECULE>
Cc1cc(C)c(-c2cc(C)c(F)c([C@H](CC(=O)O)NC(=O)[C@H](CC(C)C)n3cc(CCCN(C)C)c(C(F)(F)F)cc3=O)c2F)c(C)c1F [IW-P2]

>  <IC50>
5 to 10 nM

$$$$
>  <MOLECULE>
Cc1cc(C)c(-c2cc(C3CC3)c(F)c([C@H](CC(=O)O)NC(=O)[C@H](CC(C)C)n3cc(CCN4CCC4)c(C(F)(F)F)cc3=O)c2F)c(C)c1 [HM-P2]

>  <IC50>
< 5 nM

$$$$
